Settings: 323 K; 101 kPa; Liquid; Pendant drop method
parameterMeasured: interfacial tension (mN/m)

Cn1cc[n+](C)c1.O=S(=O)([N-]S(=O)(=O)C(F)(F)F)C(F)(F)F [1,3-dimethylimidazolium bis((trifluoromethyl)sulfonyl)amide] + O
6.52
CCCCCCCCCCn1cc[n+](C)c1.O=S(=O)([N-]S(=O)(=O)C(F)(F)F)C(F)(F)F + O
15.66
CCCC[n+]1ccn(C)c1.O=S(=O)([N-]S(=O)(=O)C(F)(F)F)C(F)(F)F + O
11.07
CCCCCC[n+]1ccn(C)c1.O=S(=O)([N-]S(=O)(=O)C(F)(F)F)C(F)(F)F + O
13.45
CCn1cc[n+](C)c1.O=S(=O)([N-]S(=O)(=O)C(F)(F)F)C(F)(F)F + O
8.61
CCCCCCCCn1cc[n+](C)c1.O=S(=O)([N-]S(=O)(=O)C(F)(F)F)C(F)(F)F + O
14.44
